Tested on: Escherichia coli
Assay: Synergistic antibacterial activity against Escherichia coli BL21 (DE3) harboring serine beta lactamase OXA-48 assessed as meropenem MIC at 64 microg/ml measured after 16 hrs by CLSI protocol based broth microdilution method (reference value: 1 microg/ml)
Assay type: functional
Settings: dose 64 µg/ml
Reported metric: MIC (µg/mL)
One number for each entry, in µg/mL.

Some compounds with recorded MIC:
CCOC(=O)ONC(=O)CCCc1ccccc1; 0.5
O=C(CC(c1ccccc1)c1ccccc1)NOC(=O)OCc1ccccc1; 0.5

Record MIC for all entries; do not skip any.
1. CCCCCOC(=O)ONC(=O)CCc1ccccc1
2. O=C(CCc1ccccc1)NOC(=O)OCc1ccccc1
3. CCOC(=O)ONC(=O)C(CC)c1ccccc1 (stereo not given)
4. CCOC(=O)ONC(=O)CCc1ccccc1
5. CC(C)COC(=O)ONC(=O)CCC1CCCCC1
6. CC(C)COC(=O)ONC(=O)CCc1ccccc1
7. O=C(CCC1CCCCC1)NOC(=O)OCc1ccccc1

1: 1; 2: 1; 3: 1; 4: 0.5; 5: 0.063; 6: 1; 7: 0.5

Supply measured MIC of O=C(OCc1ccccc1)ONC(=O)C1CCCCC1 in your reply.
1
